experiment: Urinary excretion study in rats after oral NS, SF or CNS (LC–MS/MS); type: in vivo; settings: rat urine, oral NS 60 mg/kg, 6 h

{"columns": ["compound", "Excretion amount"],
 "data": [
  ["CC(C)=CCC[C@](C)(O[C@@H]1O[C@H](CO)[C@@H](O)[C@H](O)[C@H]1O)[C@H]1CC[C@]2(C)[C@@H]1[C@H](O)C[C@@H]1[C@@]3(C)CC[C@H](O[C@@H]4O[C@H](CO)[C@@H](O)[C@H](O)[C@H]4O[C@@H]4O[C@H](CO)[C@@H](O)[C@H](O)[C@H]4O)C(C)(C)[C@@H]3CC[C@]12C [ginsenoside Rd]", "0.021 ± 0.020 µg"],
  ["CC(C)=CCC[C@](C)(O[C@@H]1O[C@H](CO)[C@@H](O)[C@H](O)[C@H]1O)[C@H]1CC[C@]2(C)[C@@H]1[C@H](O)C[C@@H]1[C@@]3(C)CC[C@H](O)C(C)(C)[C@@H]3[C@@H](O[C@@H]3O[C@H](CO)[C@@H](O)[C@H](O)[C@H]3O[C@@H]3O[C@@H](C)[C@H](O)[C@@H](O)[C@H]3O)C[C@]12C [ginsenoside Re]", "0.143 ± 0.125 µg"],
  ["CC(C)=CCC[C@](C)(O[C@@H]1O[C@H](CO)[C@@H](O)[C@H](O)[C@H]1O)[C@H]1CC[C@]2(C)[C@@H]1[C@H](O)C[C@@H]1[C@@]3(C)CC[C@H](O)C(C)(C)[C@@H]3[C@@H](O[C@@H]3O[C@H](CO)[C@@H](O)[C@H](O)[C@H]3O)C[C@]12C [ginsenoside Rg1]", "3.616 ± 2.575 µg"],
  ["CC(C)=CCC[C@](C)(O[C@@H]1O[C@H](CO[C@@H]2O[C@H](CO)[C@@H](O)[C@H](O)[C@H]2O)[C@@H](O)[C@H](O)[C@H]1O)[C@H]1CC[C@]2(C)[C@@H]1[C@H](O)C[C@@H]1[C@@]3(C)CC[C@H](O[C@@H]4O[C@H](CO)[C@@H](O)[C@H](O)[C@H]4O[C@@H]4O[C@H](CO)[C@@H](O)[C@H](O)[C@H]4O)C(C)(C)[C@@H]3CC[C@]12C [ginsenoside Rb1]", "0.262 ± 0.207 µg"]
]}
